All figures here come from the supplement of paper PMC13380429.

Test system: Vero E6 infected with SARS-CoV-2
Experiment: inhibition of SARS-CoV-2 cytopathic effect; higher = more antiviral protection, active = above 15
Condition: 833.33 nM; 48 h
Readout label: inhibition of SARS-CoV-2 cytopathic effect

1. CC(=O)Nc1ccc(OC(C)=O)cc1 [diacetamate]
0.82% (inactive)
2. C[C@@H](O)[C@H]1C(=O)N2C(C(=O)O)=C(S[C@@H]3CN[C@H](C(=O)N(C)C)C3)[C@H](C)[C@H]12 [meropenem]
6.2% (inactive)
3. N=C(N)Nc1ccc(Cl)cc1 [4-chlorophenylguanidine]
-0.99% (inactive)
4. CC1=C(/C=C/C(C)=C/C=C/C(C)=C/CO)C(C)(C)CCC1 [retinol]
2.09% (inactive)
5. CC[C@H](Nc1ncnc2[nH]cnc12)c1nc2cccc(F)c2c(=O)n1-c1ccccc1 [idelalisib]
3.57% (inactive)
6. c1cc2c(c(N3CCNCC3)c1)OCCO2 [eltoprazine]
-1.11% (inactive)
7. COc1c(O[C@@H]2O[C@H](CO)[C@@H](O)[C@H](O)[C@H]2O)cc2c(c1OC)-c1ccc(SC)c(=O)cc1[C@@H](NC(C)=O)CC2 [thiocolchicoside]
-5.51% (inactive)
8. CCN(CC)CC1CCN(c2ncc3ncnc(Nc4ccc(F)c(Cl)c4)c3n2)CC1
-7.12% (inactive)
9. CC(C)S(=O)(=O)NC[C@H](C)c1ccc(-c2ccc(CCNS(C)(=O)=O)cc2)cc1 [mibampator]
1.62% (inactive)
10. Cc1cc([N+](=O)[O-])ccc1NS(=O)(=O)c1cc(Cl)ccc1Cl
0.28% (inactive)
11. O=C(O)c1cc(O)c(O)c(O)c1 [gallic-acid]
-1.88% (inactive)
12. Fc1ccc(CNc2ncnc3ccc(F)cc23)cc1 [spautin-1]
-0.85% (inactive)
13. OCCCNc1ccccc1 [3-anilinopropan-1-ol]
-0.07% (inactive)
14. CC(=O)N[C@@H](CS)C(=O)O [acetylcysteine]
1.93% (inactive)
15. CC(C)c1ccc(C(=O)c2cccs2)c(SCCCCCCCCN(C)C)n1
1.71% (inactive)
16. COc1ccc2cc3[n+](cc2c1OC)CCc1cc2c(cc1-3)OCO2 [berberine]
-3.86% (inactive)
17. CN1C(=O)CCS(=O)(=O)C1c1ccc(Cl)cc1 (stereo not given) [chlormezanone]
0.68% (inactive)
18. CC(=O)N(O)C/C=C/c1cccc(Oc2ccccc2)c1
-0.73% (inactive)
19. O=c1cc(N2CCOCC2)oc2c(-c3ccccc3)cccc12
-1.92% (inactive)
20. O=C1c2ccccc2-c2c(NCCc3ccccc3)c(=O)[nH]c3cccc1c23
2.52% (inactive)
